# assay_summary: AUC (0 to infinity) in CD1 mouse at 10 mg/kg, ip measured up to 7 hrs by LC-MS/MS analysis
# Assay type: ADME, organism-based
# Parameters: dose 10 mg/kg, time infinity, route intraperitoneal
# reported_conditions: in vivo
result_type: AUC(0-inf) (ng·h/mL)
Numeric only. Scale: ng·h/mL

Ask | Answer with the recorded AUC(0-inf) for the molecule listed here: O=C(NCC1CCOCC1)c1n[nH]c2ccc(-c3cncc(CO)c3)cc12
Reply | 791

###

# assay_summary: Cmax in brain of CD1 mouse at 10 mg/kg, ip measured up to 7 hrs by LC-MS/MS analysis
# Format: ADME, organism-based
# Parameters: dose 10 mg/kg, route intraperitoneal
result_type: Cmax (ng/g)
Answer with a number only, understood to be in ng/g.

Ask | Name the recorded Cmax of the item O=C(NCC1CCOCC1)c1n[nH]c2ccc(-c3cncc(CO)c3)cc12 in your answer.
Reply | 21.1

###

# assay_summary: Cmax in plasma of CD1 mouse at 10 mg/kg, ip measured up to 7 hrs by LC-MS/MS analysis
# Assay type: ADME, organism-based
# Parameters: dose 10 mg/kg, route intraperitoneal
result_type: Cmax (ng/mL)
Note: unit ng/mL is implicit; provide only the numeric part.

Ask | Note down Cmax recorded for O=C(NCC1CCOCC1)c1n[nH]c2ccc(-c3cncc(CO)c3)cc12
Reply | 949

###

# assay_summary: Half life in CD mouse pooled liver microsomes at 10 uM incubated in shaking water bath measured up to 60 mins in presence of NADPH by HPLC-MS/MS analysis
# Type: ADME, Microsome
result_type: half-life at 10 µM

Ask | Report half-life at 10 µM, nothing else, for this molecule: O=C(NCC1CCOCC1)c1n[nH]c2ccc(-c3cncc(CO)c3)cc12
Reply | > 1 h

Source: ChEMBL document CHEMBL4613299
